Entries and their activity change, negative = cytotoxicity values follow.
Tested on: HeLa
Assay: Primary qHTS to identify gynecologic anti-cancer compounds using libraries of approved drugs and bioactive compounds (AID 1345084); further: on the % scale 0 is the no-effect control and ±100 the full control effect; nearly all actives have a fitted effect of over 55% in size
Conditions: Gynecologic cancer cell panel viability, ATPlite luminescence, 48 h; series mostly up to 57.5 µM
Text: National Center for Advancing Translational Sciences [NCATS] Assay Overview: Chemotherapeutic drug responses vary from cancer to cancer and from patient to patient. […] ATPlite is a luminescence based assay reliant on the conversion of a luciferase substrate to light in the presence of ATP. As a cytotoxic compound will suppress growth and decrease the number of cells, the concentration of ATP will decrease, and less light signal will be detected in the well. […]
Results filed as inconclusive are left out. Activity calls are given as the source filed them. The call rests on the fitted dose curve; in most records, active means well fitted cell-killing curve with a large enough effect; inconclusive means small, poorly fitted or top-dose-only effect, or effect the other way; inactive means flat fitted curve, though single readings scatter.

Input line: For the compound shown here, C[C@@H]1O[C@@H](O[C@H]2[C@H](O)[C@@H](C(=O)O)O[C@@H](O[C@H]3CC[C@@]4(C)C(CC[C@]5(C)C4CC=C4C6CC(C)(C)CC[C@]6(C(=O)O)CC[C@]45C)C3(C)C)[C@@H]2O[C@@H]2OC[C@@H](O)[C@H](O)[C@H]2O)[C@H](O)[C@H](O)[C@H]1O (some centres undefined) , give the reported activity change, negative = cytotoxicity.
Output line: 10.5% [at 11.6 µM] (inactive)

Input line: Quick one: activity change, negative = cytotoxicity of C=CC(C)(O)CC/C=C(\C)C(=O)OC1C(O)C(CO)OC(OC(=O)C23CCC(C)(C)CC2C2=CCC4C5(C)CCC(OC6OC(COC7OCC(OC(C)=O)C(O)C7OC7OC(COC(C)=O)C(O)C(O)C7O)C(O)C(O)C6O)C(C)(C)C5CCC4(C)C2(C)C(O)C3O)C1OC1OCC(OC2OCC(O)C(OC3OCC(O)C(O)C3O)C2O)C(O)C1O (centres undefined) ?
Output line: 16.6% [at 6.55 µM] (inactive)

Input line: What does the data say about its activity change, negative = cytotoxicity? Entry: CC1(C)CCC2(C(=O)OC3OC(CO)C(O)C(O)C3O)CCC3(C)C(=CCC4C5(C)CCC(OC6OC(C(=O)O)C(OC7OC(CO)C(O)C(O)C7O)C(OC7OC(CO)C(O)C(O)C7O)C6O)C(C)(C)C5CCC43C)C2C1 (centres undefined)
Output line: 10.1% [at 11.6 µM] (inactive)

Input line: # activity change, negative = cytotoxicity lookup, item "CC(=O)C1=C(C)N(c2cccc(C(F)(F)F)c2)C(=O)N[C@H]1c1ccc(C#N)nc1"
Output line: 11% [at 11.6 µM] (inactive)

----------
test system: HEK293T; assay: qHTS assay to identify novel small-molecules to repurpose for Merkel cell carcinoma treatment (AID 1296009); conditions: MCC and control cell lines, CellTiter-Glo viability, 72 h; at 44.8 µM (top of the series) unless noted; further: nearly all actives have a fitted effect of over 60% in size
Results filed as inconclusive are left out. Active and inactive are the calls of the source. Calls follow the shape of the dose curve; as a rule, active = well fitted inhibition curve with a large enough effect; inconclusive = small, poorly fitted or top-dose-only effect; inactive = flat fitted curve, though single readings scatter.
measurement.label: outcome

Recorded results for 4 molecules are shown here.
{"columns": ["molecule", "outcome"],
 "data": [
  ["C=C1C(O)CC2C(C(=O)O)=COC(O[C@@H]3O[C@H](COC(=O)/C=C/c4ccc(O)cc4)[C@@H](O)[C@H](O)[C@H]3O)C12 (stereo partly drawn)", "inactive [at 17.4 µM]"],
  ["COc1cc2occc2c(O[C@@H]2O[C@H](CO)[C@@H](O)[C@H](O)[C@H]2O)c1CCC(=O)O", "inactive [at 17.4 µM]"],
  ["CCc1c(C)nc2c(-c3cnn(-c4cc(CO)ccn4)c3)c[nH]n2c1=O", "inactive"],
  ["CC1=C(C(=O)O)/C(=C\\CO[C@@H]2O[C@H](CO)[C@@H](O)[C@H](O)[C@H]2O)C(OC(=O)/C=C\\c2ccc(O)cc2)C1 (stereo partly drawn)", "inactive [at 17.4 µM]"]
]}

Input line: What reported outcome corresponds to "Cc1cccc(-c2[nH]c(Cc3cccc(C(N)=O)c3)nc2-c2ccc3nccnc3c2)n1" on HEK293T?
Output line: inactive

Input line: Return outcome measured with HEK293T given this molecule: "C[C@]12C[C@@H](O)[C@@H]3C[C@@]1(O[C@@H]1O[C@H](CO)[C@@H](O)[C@H](O)[C@H]1O)[C@]3(COC(=O)c1ccccc1)C(=O)O2"
Output line: inactive [at 17.4 µM]

Input line: Lookup: outcome / HEK293T / "CCN(Cc1cccnc1)C(=O)CN(c1ccc(OC)nc1)S(=O)(=O)c1ccccc1C"
Output line: inactive

Input line: Give outcome (HEK293T) of the following molecule: CC(=O)C=C=C1C(C)(C)CC(O[C@@H]2O[C@H](CO)[C@@H](O)[C@H](O)[C@H]2O)CC1(C)O (stereo partly drawn)
Output line: inactive
